- System: Puccinia recondita f. sp. tritici
- protocol text: Test C: test suspension sprayed on wheat seedlings, inoculated next day with Puccinia recondita f. sp. tritici (wheat leaf rust), visual disease rating
- Assay type: in vivo
- cond: Rate 10 ppm test suspension, relative to the controls
What Test C rating (% disease control) was measured for each of the following?
Number in %, nothing else.

Request: Puccinia recondita f. sp. tritici / Test C rating (% disease control) / `CS(=O)(=O)CCOC(=O)c1cnn(Cc2ccc(-c3noc(C(F)(F)F)n3)cc2)c1` : value?
Response: 100

Request: Please give the result for `FC(F)(F)c1nc(-c2ccc(Cn3ncc4cc(Br)cnc43)cc2)no1` too.
Response: 68

Request: Please give the result for `CCCCOC(=O)c1cnn(Cc2ccc(-c3noc(C(F)(F)F)n3)cc2)c1` too.
Response: 100

Request: Entry `N#CCNC(=O)c1coc(COc2ccc(-c3noc(C(F)(F)F)n3)cc2)n1` please
Response: 0

----------
- System: Puccinia recondita f. sp. tritici
- protocol text: Test C: test suspension sprayed on wheat seedlings, inoculated next day with Puccinia recondita f. sp. tritici (wheat leaf rust), visual disease rating
- Type: in vivo
- cond: Rate 10 ppm test suspension, relative to the controls
property: Test C rating (% disease control) (%)
Quick note: give the figure in %, leave out the unit.

Request: Consider the compound shown here: `O=C(OCCCl)c1cnn(Cc2ccc(-c3noc(C(F)(F)F)n3)cc2)c1` What is its recorded Test C rating (% disease control)?
Response: 100

Request: Ok, now `N#CCNC(=O)c1csc(COc2ccc(-c3noc(C(F)(F)F)n3)cc2)n1`
Response: 89

Request: Now try `CON=C(CCl)COC(=O)c1cnn(Cc2ccc(-c3noc(C(F)(F)F)n3)cc2)c1` .
Response: 0

Request: // same read-out, input: `O=C(c1coc(Cc2ccc(-c3noc(C(F)(F)F)n3)cc2)n1)N1CCC(F)(F)C1`
Response: 90

Request: Then `O=C(CCl)COC(=O)c1cnn(Cc2ccc(-c3noc(C(F)(F)F)n3)cc2)c1` ?
Response: 0

Request: What do you get for `O=C(NCCn1cccn1)c1coc(COc2ccc(-c3noc(C(F)(F)F)n3)cc2)n1` ?
Response: 55

----------
Consider the following compounds; for each one, report its Test A rating (% disease control).
- Tested on: Phakopsora pachyrhizi
- protocol text: Test A: test suspension sprayed on soybean seedlings, inoculated next day with Phakopsora pachyrhizi (Asian soybean rust), visual disease rating
- Assay type: in vivo
- cond: Rate 50 ppm test suspension, relative to the controls
Output spec: scalar in %, unitless text.

Request: Form field: reported Test A rating (% disease control) of CCOC(=O)C1(Cc2ccc(-c3noc(C(F)(F)F)n3)cc2)CCCNC1=O (centres unmarked)
Response: 100

Request: One more compound: `CCOC(=O)c1cnn(CN2CCC(c3noc(C(F)(F)F)n3)CC2)c1`
Response: 0

Request: Field entry: `COC(=O)c1cnn(CCCc2ccc(-c3noc(C(F)(F)F)n3)cc2)c1`
Response: 100

Request: Same read-out for `CCOC(=O)c1cnn(Cc2ccc3cc(-c4noc(C(F)(F)F)n4)ccc3c2)c1` ?
Response: 77

Request: Check `CCCOC(=O)c1cnn(Cc2ccc3cc(-c4noc(C(F)(F)F)n4)ccc3c2)c1` too.
Response: 77

Request: Follow-up item: `CCOC(=O)c1cnn(CCCc2ccc(-c3noc(C(F)(F)F)n3)cc2)c1`
Response: 100

Request: Moving on to the next compound: C#CCNC(=O)C1=NOC(Cc2ccc(-c3noc(C(F)(F)F)n3)s2)C1 (racemic)
Response: 100

Request: Lookup CCOC(=O)C1(Cc2ccc(-c3noc(C(F)(F)F)n3)cc2)CCNC1=O (centres unmarked)
Response: 99
